Assay: Cmax in fasted Wistar rat at 5 mg/kg, po by LC-MS/MS analysis
Type: ADME, organism-based
Design: dose 5 mg/kg, route oral
Conditions: in vivo
Measured parameter: Cmax

Compound | Cmax
CC(C)N1CCC(Oc2ccc(C(=O)NC3CCN(C(C)C)C3)cc2)CC1 (configuration not stated) | 122 ng/mL

For the compound shown here, CC(C)CN1CCC(NC(=O)c2ccc(OC3CCN(C(C)C)CC3)cc2)C1 (configuration not stated) , give the reported Cmax.
18 ng/mL

These entries and their values trace back to ChEMBL document CHEMBL3751729.
